Just for reference, ChEMBL document CHEMBL1201862 is where these values come from.

System: SW-620
Assay: NCI tumour cell line growth inhibition, 48 h
Calls of active or inactive are those of the source. Rule as the data show it: active = GI50 up to about 1.1 µM and inactive = higher.
# GI50 per record follows
Assay Endpoint: GI50

[[record]]
compound = "COC(=O)CCC(C)C1CCC2C3C(C[C@H](OC(C)=O)[C@]12C)[C@@]1(C)CCC2(C[C@H]1C[C@H]3OC(C)=O)OOC1(CC[C@]3(C)C4C[C@H](OC(C)=O)[C@]5(C)C(C(C)CCC(=O)OC)CCC5C4[C@H](OC(C)=O)C[C@@H]3C1)OO2 (some centres undefined)"
result = "> 100 µM (inactive)"

[[record]]
compound = "O=C(NNC(=S)NCc1ccccc1)C12CC3CC(CC(C3)C1)C2"
result = "48 µM (inactive)"

[[record]]
compound = "Cn1c(=O)c(Br)c(C=O)n(CCO[N+](=O)[O-])c1=O"
result = "2.26 µM (inactive)"

[[record]]
compound = "COc1cccc(Nc2nc3c([nH]2)c(=O)n(C)c(=O)n3C)c1"
result = "> 10 µM (inactive)"

[[record]]
compound = "COC1OC(C)C(OCc2ccccc2)C(OS(=O)(=O)c2ccc(C)cc2)C1OS(=O)(=O)c1ccc(C)cc1 (centres undefined)"
result = "> 100 µM (inactive)"

[[record]]
compound = "c1ccc2oc(-c3ccc(-c4nc5ccccc5o4)c4c3CC4)nc2c1"
result = "> 100 µM (inactive)"

[[record]]
compound = "O=C(O)c1ccccc1CC1Cc2ccccc2C1=O (centres undefined)"
result = "> 100 µM (inactive)"

[[record]]
compound = "Cc1nc(-c2cc3cc(Cl)ccc3oc2=O)cc2c1c(=O)oc1ccc(Cl)cc12"
result = "> 100 µM (inactive)"

[[record]]
compound = "CCCCCCCCCCCCCCCCOC(=O)c1cc(O)cc(C(=O)OCCCCCCCCCCCCCCCC)c1"
result = "> 100 µM (inactive)"


====

Measured GI50 accompanies every entry in the list below.
System: NCI-H460
Test: NCI tumour cell line growth inhibition, 48 h
Activity calls are given as the source filed them. Rule as the data show it: active = GI50 up to about 1.1 µM and inactive = higher.
Assay Endpoint: GI50

[[record]]
molecule = "COc1cc2c(c(C)c1O)[C@H]1COc3ccccc3[C@H]1O2"
result = "11.3 µM (inactive)"

[[record]]
molecule = "O=C(O)c1ccccc1CC1Cc2ccccc2C1=O (stereo not given)"
result = "> 100 µM (inactive)"

[[record]]
molecule = "COc1cc2c(cc1OC)C(Cl)C(c1cc(OC)c(OC)c(OC)c1)=C2Cl (stereo not given)"
result = "14.4 µM (inactive)"

[[record]]
molecule = "Cc1cc(-c2ccccc2)cc2[n+]1CC=C2.[O-][Cl+3]([O-])([O-])[O-]"
result = "> 100 µM (inactive)"

[[record]]
molecule = "Cc1nc(-n2[nH]c(C)c(CCO)c2=O)[nH]c(=O)c1CCO"
result = "> 100 µM (inactive)"

[[record]]
molecule = "CC(=O)OCC1OC(n2cc(I)c(=O)[nH]c2=O)C(OC(C)=O)C(OC(C)=O)C1OC(C)=O (stereo not given)"
result = "> 100 µM (inactive)"

[[record]]
molecule = "CO[C@@H](c1ccccc1)[C@H](O)[C@@](O)(c1ccccc1)P(=O)(OC)OC"
result = "> 100 µM (inactive)"

[[record]]
molecule = "Cc1cc(C)c([S@@](=O)O[C@@H]2[C@H]3OC(C)(C)O[C@H]3O[C@@H]2[C@H]2COC(C)(C)O2)c(C)c1"
result = "24.8 µM (inactive)"

[[record]]
molecule = "COc1cc(CNc2nc3ccccc3n2Cc2ccccc2)cc(CN2CCOCC2)c1O"
result = "50.9 µM (inactive)"

[[record]]
molecule = "COc1ccc2c(c1)N=C1CSC(c3ccccc3Cl)N1C2 (stereo not given)"
result = "3.12 µM (inactive)"


====

GI50 by entry:
Tested on: K562
Experiment: NCI tumour cell line growth inhibition, 48 h
Active and inactive are the calls of the source. Cut-off read from the data, not from the text of the source: active = GI50 up to about 1.1 µM and inactive = higher.
Assay Endpoint: GI50

[[record]]
compound = "N#CC(=N)c1ncn(-c2ccc(N)cc2)c1N"
measured_target = "K562"
result = "> 100 µM (inactive)"

[[record]]
compound = "CCCCOC(=O)NC(Nc1cccc(C(F)(F)F)c1)(C(F)(F)F)C(F)(F)F"
measured_target = "K562"
result = "30.5 µM (inactive)"

[[record]]
compound = "O=C1OCCC[C@H]2O[C@@H](COCc3ccccc3)C[C@@H]12"
measured_target = "K562"
result = "> 100 µM (inactive)"

[[record]]
compound = "CCOC(=O)c1c(-c2cccc3ccccc23)c(C#N)c(=S)n(C2OC(COC(C)=O)C(OC(C)=O)C(OC(C)=O)C2OC(C)=O)c1C (centres undefined)"
measured_target = "K562"
result = "> 100 µM (inactive)"

[[record]]
compound = "COc1cc(C=C(c2ccc(N(C)C)cc2)c2ccc(N(C)C)cc2)c2ccccc2c1OC"
measured_target = "K562"
result = "17.5 µM (inactive)"

[[record]]
compound = "CC12CC(=O)Nc3ccccc3N1C(c1ccccc1)=NO2 (centres undefined)"
measured_target = "K562"
result = "> 100 µM (inactive)"

[[record]]
compound = "COc1ccccc1C(O)[C@@H]1C[C@@H]2[C@H]3CC[C@@](C)([C@@H]2O1)C3(C)C (some centres undefined)"
measured_target = "K562"
result = "21.3 µM (inactive)"

[[record]]
compound = "CCCCCCCCCCCCCCCC(=O)OCC(COP(=O)(O)OCCNC(=O)CCSSc1ccccn1)OC(=O)CCCCCCCCCCCCCCC (centres undefined)"
measured_target = "K562"
result = "> 100 µM (inactive)"

[[record]]
compound = "COc1ccc(/N=C/c2ccc(N(CCC#N)S(=O)(=O)c3ccccc3)cc2)cc1"
measured_target = "K562"
result = "68.1 µM (inactive)"


====

# GI50 per record follows
Test system: HT-29
Assay: NCI tumour cell line growth inhibition, 48 h
Calls of active or inactive are those of the source. Cut-off read from the data, not from the text of the source: active = GI50 up to about 1.1 µM and inactive = higher. Residues, ends and D or L forms follow the SMILES beside them. *: point of attachment. Boc = CC(C)(C)OC(=O)*; OBn = c1ccc(CO*)cc1
Assay Endpoint: GI50

[[record]]
compound = "CC(C)C(NC(=O)C(Cc1ccccc1)NC(=O)OC(C)(C)C)C(=O)NCC(=O)OCc1ccccc1 (stereo not drawn) (Boc-Phe-Val-Gly-OBn; configuration not given here)"
measured_target = "HT-29"
result = "17.5 µM (inactive)"

[[record]]
compound = "O=C1Cc2c(-c3ccc(Cl)cc3)cc(-c3ccccc3)nc2-c2ccccc2N1"
measured_target = "HT-29"
result = "4.5 µM (inactive)"

[[record]]
compound = "CCCCOC(=O)NC(Nc1cccc(C(F)(F)F)c1)(C(F)(F)F)C(F)(F)F"
measured_target = "HT-29"
result = "50.8 µM (inactive)"

[[record]]
compound = "O=C1NC2(CCCCC2)C2CCCCCC12 (stereo unspecified)"
measured_target = "HT-29"
result = "> 100 µM (inactive)"

[[record]]
compound = "COc1ccc(C(=O)C#Cc2cnc(O)nc2O)cc1"
measured_target = "HT-29"
result = "11.5 µM (inactive)"

[[record]]
compound = "C#CC(O)/C=C/CCCCCCC#CC/C=C\\CC#CCCCCCC/C=C/C(O)C#C (stereo unspecified)"
measured_target = "HT-29"
result = "2.06 µM (inactive)"

[[record]]
compound = "CCCCCCCSCC1C(=O)C23C(O)C1CCC2C12COC3(O)C(O)C1C(C)(C)CCC2O (stereo unspecified)"
measured_target = "HT-29"
result = "13.5 µM (inactive)"

[[record]]
compound = "CCOC(=O)c1c(N2CCOCC2)[nH]c(=O)c(C(c2ccco2)c2c(O)c(C(=O)OCC)c(N3CCOCC3)[nH]c2=O)c1O"
measured_target = "HT-29"
result = "> 100 µM (inactive)"

[[record]]
compound = "C[C@]12CCC(=O)C=C1CC[C@@H]1[C@@H]2[C@@H](O)C[C@@]2(C)[C@H]1CC[C@]2(O)C(=O)CO [HYDROCORTISONE]"
measured_target = "HT-29"
result = "> 100 µM (inactive)"

[[record]]
compound = "COc1nc(N)nc2nc[nH]c12"
measured_target = "HT-29"
result = "495 µM (inactive)"

[[record]]
compound = "NC(CCC(=O)c1ccccn1)C(=O)O (stereo unspecified)"
measured_target = "HT-29"
result = "> 100 µM (inactive)"

[[record]]
compound = "CC(C)(C)OC(=O)/C=C/[C@@H](CCC(=O)/C=C/[C@H](/C=C\\CCCC(=O)O)NC1(c2ccccc2)c2ccccc2-c2ccccc21)O[Si](C)(C)C(C)(C)C"
measured_target = "HT-29"
result = "14.7 µM (inactive)"

[[record]]
compound = "COc1ccccc1CC(=O)C(O)(C(F)(F)F)C(F)(F)F"
measured_target = "HT-29"
result = "> 100 µM (inactive)"

[[record]]
compound = "CNC(=S)NNc1ncnc2c1c(-c1ccc(Cl)cc1)cn2-c1ccc(C)cc1"
measured_target = "HT-29"
result = "14.9 µM (inactive)"

[[record]]
compound = "O=C1CCC2(c3ccccc3)Nc3ccncc3N12 (stereo unspecified)"
measured_target = "HT-29"
result = "> 10 µM (inactive)"

[[record]]
compound = "CC(C)=Nn1cnc(C(=N)C#N)c1N"
measured_target = "HT-29"
result = "> 100 µM (inactive)"

[[record]]
compound = "CCOC(=O)C(NC(=O)CC)(Nc1ccc(F)cc1F)C(F)(F)F (stereo unspecified)"
measured_target = "HT-29"
result = "> 100 µM (inactive)"

[[record]]
compound = "Cc1cc(=O)oc2c(CNC(Cc3ccccc3)C(=O)O)c(O)ccc12 (stereo unspecified)"
measured_target = "HT-29"
result = "> 100 µM (inactive)"

[[record]]
compound = "COC(=O)C12C34C=CC5(CCC6(C=CC1(CC3)O6)C52C(=O)OC)O4 (stereo unspecified)"
measured_target = "HT-29"
result = "> 100 µM (inactive)"

[[record]]
compound = "CC1(C)OC(=O)C(=Cc2ccc(O)cc2)C(=O)O1"
measured_target = "HT-29"
result = "> 100 µM (inactive)"

[[record]]
compound = "Cc1c(Cl)cccc1NC(=O)/C=C/c1ccccc1"
measured_target = "HT-29"
result = "> 100 µM (inactive)"

